Reference for the values: PubChem BioAssay (Tox21)

# Assay Notes: qHTS assay to identify small molecule agonists of the hypoxia (HIF-1) signaling pathway (AID 1224846)
# Experimental Setup: HRE-bla ME-180 cells, beta-lactamase ratio, 17 h; series mostly up to 76.8 µM
Inconclusive results are not listed. Active and inactive are the calls of the source. Calls come from the whole dose curve; as a rule, active = well fitted activation curve with a large enough effect in the signal ratio in the repeat runs (not every such curve was filed as active); inconclusive = weak or mixed curves; inactive = flat fitted curve, though single readings scatter; the % refers to the signal ratio.
Recorded Metric: outcome

Compound: Cc1ccc(C(=O)Cl)cc1
Recorded Metric: outcome
Measured Value: inactive
--
Compound: C[C@H]1O[C@@H](O[C@H]2[C@@H](O)C[C@H](O[C@H]3[C@@H](O)C[C@H](O[C@H]4CC[C@@]5(C)[C@H](CC[C@@H]6[C@@H]5CC[C@]5(C)[C@@H](C7=CC(=O)OC7)CC[C@]65O)C4)O[C@@H]3C)O[C@@H]2C)C[C@H](O)[C@@H]1O
Recorded Metric: outcome
Measured Value: inactive
--
Compound: BrCBr
Recorded Metric: outcome
Measured Value: inactive
--
Compound: O=C(CBr)c1ccc(O)cc1
Recorded Metric: outcome
Measured Value: inactive
--
Compound: CC(C)CCCCCCCOP(=O)(Oc1ccccc1)Oc1ccccc1
Recorded Metric: outcome
Measured Value: inactive
--
Compound: ClC1=C(Cl)[C@]2(Cl)[C@H]3[C@H]([C@H]4C=C[C@H]3C4)[C@@]1(Cl)C2(Cl)Cl
Recorded Metric: outcome
Measured Value: inactive
--
Compound: ClC1=C(Cl)C2(Cl)C3C(Cl)C(Cl)CC3C1(Cl)C2(Cl)Cl (stereo not given)
Recorded Metric: outcome
Measured Value: inactive
--
Compound: Cc1cccc(OP(=O)(Oc2cccc(C)c2)Oc2cccc(C)c2)c1
Recorded Metric: outcome
Measured Value: inactive
--
Compound: COc1ccc([N+](=O)[O-])cc1O
Recorded Metric: outcome
Measured Value: inactive
--
Compound: c1ccc(OCC2CO2)cc1 (stereo not given)
Recorded Metric: outcome
Measured Value: inactive
